# TESTED_SYSTEM: NAE (heterodimer of APPBP1 and UBA3) (Homo sapiens (Human), UniProt Q8TBC4)
# Sequence (Q8TBC4 whole entry): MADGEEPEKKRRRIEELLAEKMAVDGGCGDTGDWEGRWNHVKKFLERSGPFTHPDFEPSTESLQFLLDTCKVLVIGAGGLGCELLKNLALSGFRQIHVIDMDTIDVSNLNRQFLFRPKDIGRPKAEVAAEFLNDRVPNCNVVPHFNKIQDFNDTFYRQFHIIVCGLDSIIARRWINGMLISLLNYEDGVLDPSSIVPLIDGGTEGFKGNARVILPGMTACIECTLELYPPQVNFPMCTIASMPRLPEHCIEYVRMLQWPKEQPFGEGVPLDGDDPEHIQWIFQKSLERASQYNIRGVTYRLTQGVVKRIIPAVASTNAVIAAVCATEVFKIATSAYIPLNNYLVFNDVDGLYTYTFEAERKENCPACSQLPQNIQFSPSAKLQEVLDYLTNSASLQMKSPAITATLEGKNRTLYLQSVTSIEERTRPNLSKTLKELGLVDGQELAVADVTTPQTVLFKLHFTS
# Sequence (Q13564 whole entry partner): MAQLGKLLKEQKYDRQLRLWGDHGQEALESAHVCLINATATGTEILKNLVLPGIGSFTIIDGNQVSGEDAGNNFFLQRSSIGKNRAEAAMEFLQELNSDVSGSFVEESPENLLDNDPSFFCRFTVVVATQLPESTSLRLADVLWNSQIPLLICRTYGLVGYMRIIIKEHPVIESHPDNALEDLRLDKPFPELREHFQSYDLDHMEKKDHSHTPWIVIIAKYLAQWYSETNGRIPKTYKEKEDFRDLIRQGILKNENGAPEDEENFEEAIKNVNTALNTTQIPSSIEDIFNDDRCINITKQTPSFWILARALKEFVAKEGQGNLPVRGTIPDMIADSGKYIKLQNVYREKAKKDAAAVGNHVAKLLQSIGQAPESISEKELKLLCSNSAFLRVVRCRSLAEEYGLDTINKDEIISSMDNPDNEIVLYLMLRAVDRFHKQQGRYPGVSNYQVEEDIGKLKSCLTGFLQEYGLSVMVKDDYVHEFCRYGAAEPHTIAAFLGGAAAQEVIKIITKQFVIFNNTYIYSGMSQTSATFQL
# ASSAY_DETAILS: Nedd8 conjugation inhibitory activity (AlphaScreen assay)
# Assay type: biochemical
# COND: purified NAE, GST-UBC12, Biotin-Nedd8, ATP
Below, each entry is listed with its recorded IC50.

| COMPOUND | TESTED_SYSTEM | IC50 |
| --- | --- | --- |
| Nc1ncnc2c1c(C#Cc1ccc(OCc3ccccc3)cn1)cn2[C@@H]1O[C@H](CNS(N)(=O)=O)[C@@H](O)[C@H]1O [Example 52] | NAE (heterodimer of APPBP1 and UBA3) (Homo sapiens (Human), UniProt Q8TBC4) | 0.008 µM |
| Nc1ncnc2c1c(C#Cc1c(F)cc(N3CCCC(O)C3)cc1F)cn2[C@@H]1O[C@H](CNS(N)(=O)=O)[C@@H](O)[C@H]1O (stereo partly drawn) [Example 38] | NAE (heterodimer of APPBP1 and UBA3) (Homo sapiens (Human), UniProt Q8TBC4) | 0.0035 µM |
| Nc1ncnc2c1c(C#Cc1c(F)cc(N3CC[C@@H](O)C3)cc1F)cn2[C@@H]1O[C@H](CNS(N)(=O)=O)[C@@H](O)[C@H]1O [Example 30] | NAE (heterodimer of APPBP1 and UBA3) (Homo sapiens (Human), UniProt Q8TBC4) | 0.027 µM |
| Nc1ncnc2c1c(C#Cc1c(F)cccc1OCC1CC1)cn2[C@@H]1O[C@H](CNS(N)(=O)=O)[C@@H](O)[C@H]1O [Example 86] | NAE (heterodimer of APPBP1 and UBA3) (Homo sapiens (Human), UniProt Q8TBC4) | 0.0054 µM |
| Cc1ccc(Cn2cc(-c3cn([C@H]4C[C@H](O)[C@@H](COS(N)(=O)=O)O4)c4ncnc(N)c34)cn2)cc1C [Example 137] | NAE (heterodimer of APPBP1 and UBA3) (Homo sapiens (Human), UniProt Q8TBC4) | 0.019 µM |
| CSc1cccc(F)c1C#Cc1cn([C@@H]2C=C(CNS(N)(=O)=O)[C@@H](O)[C@H]2O)c2ncnc(N)c12 [Example 130] | NAE (heterodimer of APPBP1 and UBA3) (Homo sapiens (Human), UniProt Q8TBC4) | 0.004 µM |

* * *

# TESTED_SYSTEM: NAE (heterodimer of APPBP1 and UBA3) (Homo sapiens (Human), UniProt Q8TBC4)
# ASSAY_DETAILS: Nedd8 conjugation inhibitory activity (AlphaScreen assay)
# Assay type: biochemical
# COND: purified NAE, GST-UBC12, Biotin-Nedd8, ATP
RECORDED_METRIC: IC50 (µM)

| SMILES_DATA | EXPERIMENTAL_RESULT |
| --- | --- |
| CN1CCN(c2cc(F)c(C#Cc3cn([C@@H]4C[C@H](CNS(N)(=O)=O)[C@@H](O)[C@H]4O)c4ncnc(N)c34)c(F)c2)CC1 | 0.013 |
| NC(=O)c1cccc(F)c1C#Cc1cn([C@@H]2O[C@H](CNS(N)(=O)=O)[C@@H](O)[C@H]2O)c2ncnc(N)c12 | 0.0032 |
| CCOc1cccc(OC)c1C#Cc1cn([C@@H]2O[C@H](CNS(N)(=O)=O)[C@@H](O)[C@H]2O)c2ncnc(N)c12 | 0.016 |
| N#Cc1ccccc1C#Cc1cn([C@@H]2O[C@H](CNS(N)(=O)=O)[C@@H](O)[C@H]2O)c2ncnc(N)c12 | 0.018 |
| Nc1ncnc2c1c(C#Cc1ccc3[nH]ncc3n1)cn2[C@@H]1O[C@H](CNS(N)(=O)=O)[C@@H](O)[C@H]1O | 0.028 |
| CCNc1cc(F)c(C#Cc2cn([C@@H]3O[C@H](CNS(N)(=O)=O)[C@@H](O)[C@H]3O)c3ncnc(N)c23)c(F)c1 | 0.012 |
| CNc1cc(F)c(C#Cc2cn([C@@H]3O[C@H](CNS(N)(=O)=O)[C@@H](O)[C@H]3O)c3ncnc(N)c23)c(F)c1 | 0.0048 |
| CCSc1cccc(F)c1C#Cc1cn([C@@H]2O[C@H](CNS(N)(=O)=O)[C@@H](O)[C@H]2O)c2ncnc(N)c12 | 0.0071 |
| Cc1ccccc1-c1nc(-c2cn([C@@H]3O[C@H](CNS(N)(=O)=O)[C@@H](O)[C@H]3O)c3ncnc(N)c23)cs1 | 0.0071 |
| CN1CCOc2c1ccc(F)c2C#Cc1cn([C@@H]2C[C@H](CNS(N)(=O)=O)[C@@H](O)[C@H]2O)c2ncnc(N)c12 | 0.02 |
| Nc1ncnc2c1c(C#Cc1ccccc1F)cn2[C@@H]1O[C@H](CNS(N)(=O)=O)[C@@H](O)[C@H]1O | 0.013 |
| Nc1ncnc2c1c(C#Cc1c(F)cc(OCn3nccn3)cc1F)cn2[C@@H]1O[C@H](CNS(N)(=O)=O)[C@@H](O)[C@H]1O | 0.0085 |
| Nc1ncnc2c1c(C#Cc1ccnc3ccccc13)cn2[C@@H]1O[C@H](CNS(N)(=O)=O)[C@@H](O)[C@H]1O | 0.029 |
| Nc1ncnc2c1c(C#Cc1c(F)cc(N3CCC3)cc1F)cn2[C@@H]1O[C@H](CNS(N)(=O)=O)[C@@H](O)[C@H]1O | 0.0076 |

* * *

# TESTED_SYSTEM: NAE (heterodimer of APPBP1 and UBA3) (Homo sapiens (Human), UniProt Q8TBC4)
# ASSAY_DETAILS: Nedd8 conjugation inhibitory activity (AlphaScreen assay)
# Format: biochemical
# COND: purified NAE, GST-UBC12, Biotin-Nedd8, ATP

| COMPOUND | UNIT_OF_MEASUREMENT | IC50 |
| --- | --- | --- |
| Nc1ncnc2c1c(C#Cc1ccccc1OC(F)F)cn2[C@@H]1O[C@H](CNS(N)(=O)=O)[C@@H](O)[C@H]1O | µM | 0.027 |
| Nc1ncnc2c1c(C#CC1CCc3ccccc31)cn2[C@@H]1O[C@H](CNS(N)(=O)=O)[C@@H](O)[C@H]1O (stereo partly drawn) | µM | 0.015 |
| Nc1ncnc2c1c(C#Cc1cccc3cccnc13)cn2[C@@H]1C[C@H](CNS(N)(=O)=O)[C@@H](O)[C@H]1O | µM | 0.0092 |
| CCS(=O)(=O)c1cc(N2CC[C@@H](O)C2)cc(F)c1C#Cc1cn([C@@H]2O[C@H](CNS(N)(=O)=O)[C@@H](O)[C@H]2O)c2ncnc(N)c12 | µM | 0.0044 |
| CCOc1cc(N2CCOCC2)cc(F)c1C#Cc1cn([C@@H]2O[C@H](CNS(N)(=O)=O)[C@@H](O)[C@H]2O)c2ncnc(N)c12 | µM | 0.024 |
| Nc1ncnc2c1c(C#Cc1c(F)cc(N3CC[C@@H](F)C3)cc1F)cn2[C@@H]1C[C@H](CNS(N)(=O)=O)[C@@H](O)[C@H]1O | µM | 0.004 |

* * *

IC50 values by entry
# TESTED_SYSTEM: NAE (heterodimer of APPBP1 and UBA3) (Homo sapiens (Human), UniProt Q8TBC4)
# ASSAY_DETAILS: Nedd8 conjugation inhibitory activity (AlphaScreen assay)
# Assay type: biochemical
# COND: purified NAE, GST-UBC12, Biotin-Nedd8, ATP

| SMILES_DATA | IC50 [µM] |
| --- | --- |
| Nc1ncnc2c1c(C#Cc1ncc(OCc3ccccc3)cn1)cn2[C@@H]1O[C@H](CNS(N)(=O)=O)[C@@H](O)[C@H]1O | 0.0051 |
| Nc1ccc(C#Cc2cn([C@@H]3O[C@H](CNS(N)(=O)=O)[C@@H](O)[C@H]3O)c3ncnc(N)c23)c(F)c1 | 0.0091 |
| Nc1ncnc2c1c(C#Cc1c(F)cccc1S(N)(=O)=O)cn2[C@@H]1O[C@H](CNS(N)(=O)=O)[C@@H](O)[C@H]1O | 0.0097 |
| Nc1ncnc2c1c(C#Cc1cccc3c1S(=O)(=O)CCC3)cn2[C@@H]1C[C@H](CNS(N)(=O)=O)[C@@H](O)[C@H]1O | 0.0091 |
| COc1cnc(OC)c(F)c1C#Cc1cn([C@@H]2O[C@H](CNS(N)(=O)=O)[C@@H](O)[C@H]2O)c2ncnc(N)c12 | 0.0056 |
| COc1ncc(F)c(C#Cc2cn([C@@H]3O[C@H](CNS(N)(=O)=O)[C@@H](O)[C@H]3O)c3ncnc(N)c23)c1F | 0.014 |
| CCS(=O)(=O)c1cccc(F)c1C#Cc1cn([C@H]2C[C@H](O)[C@@H](CNS(N)(=O)=O)O2)c2ncnc(N)c12 | 0.024 |
| CSc1ccccc1C#Cc1cn([C@@H]2O[C@H](CNS(N)(=O)=O)[C@@H](O)[C@H]2O)c2ncnc(N)c12 | 0.011 |
| Nc1ncnc2c1c(C#Cc1c(F)ccnc1F)cn2[C@@H]1O[C@H](CNS(N)(=O)=O)[C@@H](O)[C@H]1O | 0.015 |
| COc1cccc(F)c1C#Cc1cn([C@@H]2C[C@H](CNS(N)(=O)=O)[C@@H](O)[C@H]2O)c2ncnc(N)c12 | 0.013 |
| COc1cccc(F)c1C#Cc1cn([C@@H]2O[C@H](CNS(N)(=O)=O)[C@@H](O)[C@H]2O)c2ncnc(N)c12 | 0.0035 |
| CC(C)Oc1cccc(F)c1C#Cc1cn([C@@H]2O[C@H](CNS(N)(=O)=O)[C@@H](O)[C@H]2O)c2ncnc(N)c12 | 0.0053 |
| CCOc1cc(N2CCCCC2)cc(F)c1C#Cc1cn([C@@H]2C[C@H](CNS(N)(=O)=O)[C@@H](O)[C@H]2O)c2ncnc(N)c12 | 0.028 |
